assay: inhibitors of TNFa-induced NFkB p65 translocation, primary screen, imaging, HUVEC, MLSMR starter and 10KST1 sets (AID 438); details: HUVEC TNFa-induced p65 nuclear translocation; measured here: nuclei count (cytotoxicity indicator), at 2.08 µM;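 note: compound added about 3h40 before a 20 min TNFalpha stimulation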
observation type: cell count

O=C(CSc1nc2ccccc2n1CC(=O)N1CCCC1)Nc1nccs1 : 676
CCCn1c(NC(=O)C2COc3ccccc3O2)nc2ccccc21 (stereo unspecified) : 496
CCCOc1ccc(-c2nnn(CC(=O)Nc3cccc(C(=O)OC)c3)n2)cc1 : 380
Cc1cc(-c2ccccc2)nc2cc(C(N)=O)nn12 : 331
COC(=O)c1ccc(CSc2nc3ccccc3c(=O)n2Cc2ccco2)o1 : 414
Cc1cc(Cl)c(S(=O)(=O)NC2CCCCC2)cc1OCC(=O)Nc1nncs1 : 308
Cc1ccc(C(C)C)c(OCc2nnc(SCC(=O)Nc3ncc(C)s3)n2C)c1 : 663
CC(=O)c1c(C)[nH]c(C(=O)NCc2cccs2)c1C : 471
COC(=O)c1ccccc1NC(=O)c1noc2c1CC(C(C)(C)C)CC2 (stereo unspecified) : 216
O=C(Cc1ccc(Br)cc1)N1CCCCCC1 : 358
c1ccc(-c2csc(N3CCCCCC3)n2)cc1 : 403

----------
experiment: inhibitors of TNFa-induced NFkB p65 translocation, primary screen, imaging, HUVEC, MLSMR starter and 10KST1 sets (AID 438); details: HUVEC TNFa-induced p65 nuclear translocation; measured here: nuclei count (cytotoxicity indicator), at 2.08 µM;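 note: compound added about 3h40 before a 20 min TNFalpha stimulation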
Label Y when cell count >= 500; otherwise N.

N/C(Cn1nnc(-c2ccccc2)n1)=N\O : Y
CCOC(=O)c1[nH]c(C)c(C(=O)Nc2cc(OC)ccc2OC)c1C : Y
C[N+]1=C2CCCCCN2C(O)(c2ccccc2)C1 (centres undefined) : Y
CCOC(=O)N1CCC(N(C(=O)Nc2ccc(Cl)c(Cl)c2)C(C)CC)CC1 (centres undefined) : N
CN(c1ccccc1)C(c1ccc(F)cc1)c1nnnn1CC1CCCO1 (centres undefined) : Y
CCOC(=O)c1cc(-c2ccc(Cl)s2)nc2c1c(C)nn2C : N
CCCCCn1c(=O)[nH]c2cc(C(=O)NCCN3CCOCC3)ccc2c1=O : N
O=C(O)CCc1ccc(-c2cccs2)n1NC(=O)c1ccco1 : Y
CCOc1cc(S(=O)(=O)NCc2ccccn2)c(C)cc1C : N
Cc1ccc(S(=O)(=O)NCCCNC(=O)N2CCOCC2)cc1 : Y
O=c1cc(-c2ccco2)oc2ccc(Cl)cc12 : N
COc1ccc(-c2noc(-c3cc(Cl)ccc3Cl)n2)cc1OC : Y
CC(=O)Nc1ccc(NC(=O)c2ccccc2F)cc1 : N
Nc1nnc(SCC(=O)N2CCc3ccccc32)n1-c1ccccc1 : N
CCOC(=O)C1CCN(Cc2ccc(C(=O)OC)cc2)CC1 : N
O=C(Nc1ccccc1N1CCN(C(=O)c2ccc(Cl)cc2)CC1)c1cc2ccccc2o1 : N
N=c1c(C(=O)NCc2ccc(F)cc2)cc2c(=O)n3ccccc3nc2n1CCCN1CCOCC1 : Y
O=C(c1ccccc1)N1CCCCC(Sc2nnnn2-c2ccccc2)C1=O (centres undefined) : N
Clc1ccc(SCCCCn2ccnc2)cc1 : N
Cc1nn(-c2ccc(F)cc2)c2nc(N)c(C#N)c(-c3cccs3)c12 : N
CCn1cc(C(=O)NCC2COc3ccccc3O2)c2cc(OC)c(OC)cc2c1=O (centres undefined) : N
O=C(CNS(=O)(=O)c1ccc(Br)s1)N1CCN(c2ncccn2)CC1 : N
Cc1nc2ccccc2cc1C(=O)NCc1ccco1 : N
CCC(=O)N(Cc1cc2c(C)ccc(C)c2[nH]c1=O)C1CCCCC1 : Y
